Hey, just so you know, these numbers are from patent US20250368745A1.

Documented Kd across a set of binders
Biological target: T1, human IL-18BP (human, UniProt O95998 31-194)
T1 construct: UniProt printed as 095998; also called hIL-18BP
T1 sequence: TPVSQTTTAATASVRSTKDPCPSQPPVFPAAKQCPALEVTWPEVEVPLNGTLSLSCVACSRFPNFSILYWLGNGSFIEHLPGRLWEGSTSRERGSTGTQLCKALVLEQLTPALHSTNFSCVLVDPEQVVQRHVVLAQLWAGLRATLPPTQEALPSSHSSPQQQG
Experiment: BLI, apparent KD
READOUT LABEL: Kd (pM)

BINDER: SA301a LC-S93G (antibody, V domains shown) VH: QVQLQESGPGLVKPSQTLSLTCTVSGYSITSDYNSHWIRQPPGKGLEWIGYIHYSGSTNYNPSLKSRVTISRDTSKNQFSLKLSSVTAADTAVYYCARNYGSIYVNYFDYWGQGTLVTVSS VL: EIVLTQSPATLSLSPGERATLSCSASSSVSYMYWYQQKPGQAPRPLIYRTSNLASGIPARFSGSGSGTDFTLTISSLEPEDFAVYYCQQYHGYPTFGGGTKVEIK
READOUT LABEL: Kd
UNIT DESCRIPTOR: pM
REPORTED MEASUREMENT: 80

BINDER: SA301a LC-H92E (antibody, V domains shown) VH: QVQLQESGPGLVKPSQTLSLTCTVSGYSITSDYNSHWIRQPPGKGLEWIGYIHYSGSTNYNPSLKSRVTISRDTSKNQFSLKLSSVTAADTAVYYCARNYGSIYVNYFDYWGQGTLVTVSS VL: EIVLTQSPATLSLSPGERATLSCSASSSVSYMYWYQQKPGQAPRPLIYRTSNLASGIPARFSGSGSGTDFTLTISSLEPEDFAVYYCQQYESYPTFGGGTKVEIK
READOUT LABEL: Kd
UNIT DESCRIPTOR: pM
REPORTED MEASUREMENT: 360

BINDER: SA301a LC-Q90I (antibody, name in Kabat numbering, V domains shown, IgG1 kappa) VH: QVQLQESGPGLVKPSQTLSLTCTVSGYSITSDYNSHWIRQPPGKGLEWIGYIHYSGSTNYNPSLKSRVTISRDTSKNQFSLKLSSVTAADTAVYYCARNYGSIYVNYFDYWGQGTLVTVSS VL: EIVLTQSPATLSLSPGERATLSCSASSSVSYMYWYQQKPGQAPRPLIYRTSNLASGIPARFSGSGSGTDFTLTISSLEPEDFAVYYCQIYHSYPTFGGGTKVEIK
READOUT LABEL: Kd
UNIT DESCRIPTOR: pM
REPORTED MEASUREMENT: 240

BINDER: SA301a LC-Q89G (antibody, V domains shown) VH: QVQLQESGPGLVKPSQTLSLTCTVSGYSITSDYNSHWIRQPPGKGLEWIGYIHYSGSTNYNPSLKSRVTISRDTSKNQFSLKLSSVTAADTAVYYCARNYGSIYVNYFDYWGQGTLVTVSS VL: EIVLTQSPATLSLSPGERATLSCSASSSVSYMYWYQQKPGQAPRPLIYRTSNLASGIPARFSGSGSGTDFTLTISSLEPEDFAVYYCGQYHSYPTFGGGTKVEIK
READOUT LABEL: Kd
UNIT DESCRIPTOR: pM
REPORTED MEASUREMENT: 320

BINDER: SA301a LC-P95N (antibody, V domains shown) VH: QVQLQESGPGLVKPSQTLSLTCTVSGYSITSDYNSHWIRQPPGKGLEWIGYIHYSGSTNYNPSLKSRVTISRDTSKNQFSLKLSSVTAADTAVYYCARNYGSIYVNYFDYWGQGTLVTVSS VL: EIVLTQSPATLSLSPGERATLSCSASSSVSYMYWYQQKPGQAPRPLIYRTSNLASGIPARFSGSGSGTDFTLTISSLEPEDFAVYYCQQYHSYNTFGGGTKVEIK
READOUT LABEL: Kd
UNIT DESCRIPTOR: pM
REPORTED MEASUREMENT: 320
